System: MS2 coat protein
Test Summary: apparent KD of MS2 coat protein; designed switch direction (-1 OFF switch, 1 ON switch): 1; higher = weaker reporter binding
Applied Conditions: input ligand: microRNA oligo, concentration not stated
Property: apparent KD of MS2 coat protein (µM)
One number for each entry, in µM.

# example entries with known answers
Name the reported apparent KD of MS2 coat protein value associated with the sequence UUUAGAUUCAGAGGAUAUUGAUGUUGUAUUUUACAAGAAGGCUGAUUGGUUUGAAUUGUUUUUUAACAUGAGGAUCACCCAUGU [JR_SSNG1_Sub011] (Eterna round: R96, puzzle: Same State NG 1)
0.0192

Name the reported apparent KD of MS2 coat protein value associated with the sequence UGGUACAUGGGAGGAUAUCUCAUGGUGACAUGAGGAUCACCCAUGUAGUUGGACCGGAAACGGUGAGAGAAGGCCCAUGUACCU [JL SSNG1 3.74] (Eterna round: R96, puzzle: Same State NG 2)
0.0683

Name the reported apparent KD of MS2 coat protein value associated with the sequence GGUAAGAAUUAAGGAUAUUGAUUACAUAUGUUUAACAUGAGGAUCACCCAUGUGGGUUGCGGUAUCGAGAAGGUAAAAUAAUAG [Mat - same State NG 2 - JL mod - D83] (Eterna round: R96, puzzle: Same State NG 2)
0.17

Quick request: apparent KD of MS2 coat protein for each listed item, please.
1. CUGAGCGAUCAAGGAUAUCACGUCGUUUAGACGUGAGAAGGUGAUCCAUACAUGAGGAUCACCCAUGUAUAACAUGAAGCUCAG [SSNG1/8-A3] (Eterna round: R96, puzzle: Same State NG 1)
2. GGUGCCAAUAAAGCCUACAUGAGGAUCACCCAUGUAUGUAGGCAGGAUAUCGUUUGCUUUGCAAACGAGAAGGGCCGAGGCACC [JL SSNG3 1.19] (Eterna round: R96, puzzle: Same State NG 3)
3. GUUAGGAAUCUAGCAAACAUGAGGAUCACCCAUGUAAGUGGGAAGGAUAUGGUACAGAAACUGUACCAGAAGGUCUUAUUGUUU [Omei SS(NG) 3 AV8] (Eterna round: R96, puzzle: Same State NG 3)
4. AACAGUCGGCGAGGAUAUGGACGUACGAACUUACCCGUGCGGCUCACAUGAGGAUCACCCAUGUUCUAGAAGGCGCCACUGAAA [Atbeon] (Eterna round: R96, puzzle: Same State NG 2)

1. 0.057
2. 0.0251
3. 0.0175
4. 0.0634

Quick request: apparent KD of MS2 coat protein for each listed item, please.
1. UGGCUCAGAGCAGGAUAUACGUGGUCACAUGAGGAUCACCCAUGUCUCGAGCUUCGGCUCGAGGCGUAGAAGGGCUCUGAGCCA [SSNG2/6-B2] (Eterna round: R96, puzzle: Same State NG 2)
2. UUUGAAUUGCAAGGAUAUCUUAUUUAGAUUUUAAGAGAAGGUGCUUUAUAGUUACAUGAGGAUCACCCAUGUAUUUCUUUUUAU [JR_SSNG1_Sub062] (Eterna round: R96, puzzle: Same State NG 1)
3. AACCCGAAGGGAGGAUAUGGCACCUUAUUGGUGCCAGAAGGUCCUCACAUGAGGAUCACCCAUGUGGGCCGGUCGAAAGACCGG [Fiskers NG1ss - 12] (Eterna round: R96, puzzle: Same State NG 1)
4. UGUUGUAUUACAGGAUAUCUAGUAUUGUUAUUUAGAGAAGGGUAUUCACAUGAGGAUCACCCAUGUAUAUACGAGGAAGUUGUG [JMF's solution 40] (Eterna round: R96, puzzle: Same State NG 1)

0.187
0.0185
0.407
0.0288

Quick request: apparent KD of MS2 coat protein for each listed item, please.
1. UAAAUAAUGUAAGGAUAUACAUGAGGAAUUCUCGUAGAAGGUACAUGACAUGAGGAUCACCCAUGUAUCGCUCAGAAGAGCGUA [Mat - Same State NG 1 - JL mod - D28] (Eterna round: R96, puzzle: Same State NG 1)
2. UAAGCAUUCCUAGGAUAUGUAGGAUAUGUACAUGAGGAUCACCCAUGUCUACCAGAGACAGAAGGACAGAAGGAGGAAUGCUUC [pwkr ssNG2 2FMN 1F5s.8] (Eterna round: R96, puzzle: Same State NG 2)

0.0399
0.0258
